Measured values drawn from patent US10214546B2 for this set.

Target under test: BTK enzyme (recombinant full-length BTK, hBTK) (Homo sapiens (Human))
Sequence (Q06187 whole entry): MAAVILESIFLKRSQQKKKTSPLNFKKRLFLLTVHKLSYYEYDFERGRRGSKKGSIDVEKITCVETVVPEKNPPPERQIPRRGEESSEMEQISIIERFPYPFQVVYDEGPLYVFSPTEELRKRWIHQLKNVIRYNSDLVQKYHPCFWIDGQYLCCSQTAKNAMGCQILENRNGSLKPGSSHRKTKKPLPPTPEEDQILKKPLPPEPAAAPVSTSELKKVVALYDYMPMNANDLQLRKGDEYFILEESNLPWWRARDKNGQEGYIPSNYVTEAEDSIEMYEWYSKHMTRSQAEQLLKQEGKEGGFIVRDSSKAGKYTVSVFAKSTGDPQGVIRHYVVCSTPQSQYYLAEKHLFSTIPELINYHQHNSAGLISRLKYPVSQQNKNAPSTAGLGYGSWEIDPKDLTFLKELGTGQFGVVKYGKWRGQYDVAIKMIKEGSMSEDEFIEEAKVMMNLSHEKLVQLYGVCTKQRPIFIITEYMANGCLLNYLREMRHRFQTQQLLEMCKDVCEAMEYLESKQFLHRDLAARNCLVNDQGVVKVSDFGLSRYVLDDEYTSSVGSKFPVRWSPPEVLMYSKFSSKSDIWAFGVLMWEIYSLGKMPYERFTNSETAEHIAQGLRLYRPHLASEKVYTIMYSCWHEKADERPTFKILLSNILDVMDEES
Protocol: BTK enzymatic activity LANCE TR-FRET assay
Particulars: 50 pM hBTK, 25 μM ATP, 2 μM biotin-A5-peptide; compound range 1 μM to 0.017 nM; read-out: BTK binding IC50
Flag rule - IC50 less than 300 nM flags Condition met; the remaining entries get Condition not met.

{"Compound": "CC1(C)C[C@@H]2CC[C@@H](c3nc(-c4ccc([C@@](C)(O)c5cccc(C(F)(F)F)c5)cc4)c4c(N)nccn34)CN2C1=O", "Target under test": "BTK enzyme (recombinant full-length BTK, hBTK) (Homo sapiens (Human))", "Cat": "Condition met"}
{"Compound": "Nc1nccn2c([C@@H]3CC[C@H]4CCC(=O)N4C3)nc(-c3ccc([C@@](O)(CO)c4cccc(C(F)(F)F)c4)cc3)c12", "Target under test": "BTK enzyme (recombinant full-length BTK, hBTK) (Homo sapiens (Human))", "Cat": "Condition met"}
{"Compound": "CCOc1cc(C(O)(c2cccc(C(F)(F)F)c2)C(F)(F)F)ccc1-c1nc([C@@H]2CC[C@H]3CCC(=O)N3C2)n2ccnc(N)c12 (stereo partly drawn)", "Target under test": "BTK enzyme (recombinant full-length BTK, hBTK) (Homo sapiens (Human))", "Cat": "Condition met"}
{"Compound": "C[C@@](O)(c1ccc(-c2nc([C@@H]3CC[C@H]4COCC(=O)N4C3)n3ccnc(N)c23)cc1)c1cccc(C(F)(F)F)c1", "Target under test": "BTK enzyme (recombinant full-length BTK, hBTK) (Homo sapiens (Human))", "Cat": "Condition met"}
{"Compound": "CC(O)(c1cccc(C(F)(F)F)c1)c1ccc(-c2nc([C@@H]3CC[C@H]4CCC(=O)N4C3)n3c(F)cnc(N)c23)c(F)c1 (stereo partly drawn) [Example 183]", "Target under test": "BTK enzyme (recombinant full-length BTK, hBTK) (Homo sapiens (Human))", "Cat": "Condition not met"}
{"Compound": "CC(C)C(O)(c1ccc(-c2nc([C@@H]3CC[C@H]4CCC(=O)N4C3)n3ccnc(N)c23)cc1)c1cccc(C(F)(F)F)c1 (stereo partly drawn) [Example 76]", "Target under test": "BTK enzyme (recombinant full-length BTK, hBTK) (Homo sapiens (Human))", "Cat": "Condition not met"}
